Data credit: ChEMBL document CHEMBL4665671

- method_notes: Toxicity in po dosed Wistar male rat assessed as NOAEL administered via gavage for 14 consecutive days
- Type: organism-based
- test_conditions: in vivo, time 14 day
reported_endpoint: NOAEL at 336 h (mg/kg)
Please state the figure in mg/kg; there is no need to write the unit.

// query NOAEL at 336 h value for entry `Nc1ncc(-c2nc(N3CCOCC3)nc(N3CCOCC3)n2)c(C(F)F)n1`
3.6

* * *

- method_notes: Half life in C57BL/6J mouse brain at 10 mg/kg, po by UHPLC-MS analysis
- Assay type: ADME, organism-based
reported_endpoint: half-life (min)
Numeric only. Scale: min

Report half-life for `Nc1ncc(-c2nc(N3CCOCC3)nc(N3CCOCC3)n2)c(C(F)F)n1` please.
96

* * *

- method_notes: Thermodynamic solubility of the compound in buffer at pH 1.2 to 6.8 incubated for 24 hrs under agitation condition by shake flask method
- Assay type: physicochemical
- test_conditions: read-out: Therm_solubility
reported_endpoint: solubility thermodynamic at 24 h

So what does the record say about solubility thermodynamic at 24 h for `Nc1ncc(-c2nc(N3CCOCC3)nc(N3CCOCC3)n2)c(C(F)F)n1` ?
> 1 µg/mL

* * *

- method_notes: Toxicity in BALB/c nude mouse xenografted with human OVCAR3 cells assessed as maximum tolerated dose
- test_conditions: in vivo
reported_endpoint: MTD (mg/kg)
Provide only the numeric value, understood in mg/kg.

Can you look up the measured MTD of `Nc1ncc(-c2nc(N3CCOCC3)nc(N3CCOCC3)n2)c(C(F)F)n1` for me?
6.3

* * *

- method_notes: Half life in C57BL/6J mouse thigh muscle at 10 mg/kg, po by UHPLC-MS analysis
- Type: ADME, organism-based
reported_endpoint: half-life (h)
// return numeric value only (unit: h, not printed)

# query: half-life of entry `Nc1ncc(-c2nc(N3CCOCC3)nc(N3CCOCC3)n2)c(C(F)F)n1`
1.6

* * *

- experimental_system: mTORC2 (Homo sapiens, UniProt P42345)
- method_notes: Inhibition of mTORC2 in human A2058 cells assessed as reduction in PKB phosphorylation at S473 residue incubated for 1 hr by Western blot analysis
reported_endpoint: pIC50
Remember, pIC50 is on a log scale: it is -log10 of the molar concentration.

Look up pIC50 for this compound: `Nc1ncc(-c2nc(N3CCOCC3)nc(N3CCOCC3)n2)c(C(F)F)n1`
7.77

// pIC50 lookup, key: `Nc1ncc(-c2nc(N3CCOCC3)nc(N3[C@@H]4CC[C@H]3COC4)n2)c(C(F)F)n1`
7.14

For `Nc1ncc(-c2nc(N3CCOCC3)nc(N3C[C@H]4CC[C@@H](C3)O4)n2)c(C(F)F)n1` , what is its reported pIC50?
7.08

What pIC50 value was documented for this compound, `C[C@@H]1COCCN1c1nc(-c2cnc(N)nc2C(F)F)nc(N2CCOCC2)n1` ?
7.19

* * *

- method_notes: Cmax in C57BL/6J mouse brain at 10 mg/kg, po after 30 mins by UHPLC-MS analysis
- Type: ADME, organism-based
- Design: route oral, dose 10 mg/kg, time 30 min
reported_endpoint: Cmax

Returns the measured Cmax for the input compound. Input: `Nc1ncc(-c2nc(N3CCOCC3)nc(N3CCOCC3)n2)c(C(F)F)n1`
1020 ng/mL

* * *

- experimental_system: Cytochrome P450 1A2 (Homo sapiens, UniProt P05177)
- Sequence (P05177 whole entry): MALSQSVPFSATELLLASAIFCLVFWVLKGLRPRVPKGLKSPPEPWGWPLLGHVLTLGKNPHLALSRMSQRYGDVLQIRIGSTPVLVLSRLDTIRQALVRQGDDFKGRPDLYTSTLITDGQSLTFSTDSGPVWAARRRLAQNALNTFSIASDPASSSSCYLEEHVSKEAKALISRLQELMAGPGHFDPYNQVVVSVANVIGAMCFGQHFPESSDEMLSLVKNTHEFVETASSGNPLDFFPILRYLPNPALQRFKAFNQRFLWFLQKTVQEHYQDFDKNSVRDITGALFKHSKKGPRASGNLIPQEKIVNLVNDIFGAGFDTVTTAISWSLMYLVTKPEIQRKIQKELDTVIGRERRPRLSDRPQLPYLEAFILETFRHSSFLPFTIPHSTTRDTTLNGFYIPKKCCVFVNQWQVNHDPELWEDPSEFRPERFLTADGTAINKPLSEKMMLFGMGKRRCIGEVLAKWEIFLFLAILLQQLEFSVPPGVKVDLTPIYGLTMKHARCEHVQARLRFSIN
- method_notes: Inhibition of CYP1A2 (unknown origin) by fluorescence assay
- Assay type: ADME
reported_endpoint: IC50

Item under review: `Nc1ncc(-c2nc(N3CCOCC3)nc(N3CCOCC3)n2)c(C(F)F)n1` . Reported IC50?
> 100 µM

* * *

- method_notes: Tmax in C57BL/6J mouse plasma at 10 mg/kg, po by UHPLC-MS analysis
- Type: ADME, organism-based
reported_endpoint: Tmax (h)
# number only, unit h dropped from output

Endpoint output: Tmax of `Nc1ncc(-c2nc(N3CCOCC3)nc(N3CCOCC3)n2)c(C(F)F)n1` . Value?
1

* * *

- experimental_system: Cytochrome P450 2D6 (Homo sapiens)
- Sequence (P10635 whole entry): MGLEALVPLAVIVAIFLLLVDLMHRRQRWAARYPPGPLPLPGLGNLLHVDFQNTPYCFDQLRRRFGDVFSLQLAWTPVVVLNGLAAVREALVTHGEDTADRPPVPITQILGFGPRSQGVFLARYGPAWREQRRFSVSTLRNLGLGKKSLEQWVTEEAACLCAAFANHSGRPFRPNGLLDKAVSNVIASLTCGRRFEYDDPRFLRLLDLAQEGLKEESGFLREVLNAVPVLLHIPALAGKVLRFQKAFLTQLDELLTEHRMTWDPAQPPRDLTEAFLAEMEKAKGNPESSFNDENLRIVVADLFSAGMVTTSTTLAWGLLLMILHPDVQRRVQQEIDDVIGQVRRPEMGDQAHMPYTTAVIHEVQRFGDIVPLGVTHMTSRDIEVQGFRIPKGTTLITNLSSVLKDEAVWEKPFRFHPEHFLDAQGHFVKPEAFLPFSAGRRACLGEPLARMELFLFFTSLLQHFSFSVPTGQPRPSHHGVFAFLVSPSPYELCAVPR
reported_endpoint: IC50

State its IC50 on Cytochrome P450 2D6 (Homo sapiens): `Nc1ncc(-c2nc(N3CCOCC3)nc(N3CCOCC3)n2)c(C(F)F)n1`
> 100 µM

* * *

Give Ki for every item shown.
- experimental_system: Serine/threonine-protein kinase mTOR (Homo sapiens, UniProt P42345)
- method_notes: Displacement of alexa fluor 647-labeled kinase tracer 314 from recombinant human N-terminal GST-fused mTOR (1360 to 2549 residues) expressed in baculovirus expression system by TR-FRET assay
Express your answer in nM, writing the number without its unit.

What Ki value was documented for this compound, `Nc1ncc(-c2nc(N3CCOCC3)nc(N3CCOCC3)n2)c(C(F)F)n1` ?
33

Quick one: Ki for `C[C@@H]1COCCN1c1nc(-c2cnc(N)nc2C(F)F)nc(N2CCOCC2)n1` ?
21

Would you kindly share the measured Ki for `Nc1ncc(-c2nc(N3CCOCC3)nc(N3[C@@H]4CC[C@H]3COC4)n2)c(C(F)F)n1` ?
14

Could you share which Ki value was measured for `Nc1ncc(-c2nc(N3CCOCC3)nc(N3C[C@H]4CC[C@@H](C3)O4)n2)c(C(F)F)n1` ?
29

* * *

- method_notes: Tmax in C57BL/6J mouse brain at 10 mg/kg, po by UHPLC-MS analysis
- Format: ADME, organism-based
reported_endpoint: Tmax (min)
Report the value in min with no unit label.

Given the entry `Nc1ncc(-c2nc(N3CCOCC3)nc(N3CCOCC3)n2)c(C(F)F)n1` , report its measured Tmax.
30

* * *

- experimental_system: Cytochrome P450 3A4 (Homo sapiens)
- Sequence (P08684 whole entry): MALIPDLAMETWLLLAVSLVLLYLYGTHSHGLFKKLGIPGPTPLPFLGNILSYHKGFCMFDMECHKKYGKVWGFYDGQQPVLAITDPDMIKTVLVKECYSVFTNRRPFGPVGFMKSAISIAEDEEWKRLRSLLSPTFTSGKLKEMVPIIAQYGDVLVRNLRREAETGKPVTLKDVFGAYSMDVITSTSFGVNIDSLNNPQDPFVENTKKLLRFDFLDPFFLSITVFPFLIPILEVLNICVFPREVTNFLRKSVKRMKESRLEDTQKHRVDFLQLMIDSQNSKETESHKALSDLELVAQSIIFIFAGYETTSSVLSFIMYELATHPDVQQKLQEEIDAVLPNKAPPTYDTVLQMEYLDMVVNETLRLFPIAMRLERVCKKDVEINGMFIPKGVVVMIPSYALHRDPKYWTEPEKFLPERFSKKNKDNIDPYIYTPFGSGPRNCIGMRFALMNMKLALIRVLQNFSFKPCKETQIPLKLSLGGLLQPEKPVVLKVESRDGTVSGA
reported_endpoint: IC50

Entry `Nc1ncc(-c2nc(N3CCOCC3)nc(N3CCOCC3)n2)c(C(F)F)n1` : reported IC50 = ?
> 100 µM

* * *

- method_notes: Tmax in C57BL/6J mouse thigh muscle at 10 mg/kg, po by UHPLC-MS analysis
- Type: ADME, organism-based
reported_endpoint: Tmax (min)
Number in min, nothing else.

Param item = `Nc1ncc(-c2nc(N3CCOCC3)nc(N3CCOCC3)n2)c(C(F)F)n1` ; retrieve measured Tmax.
30

* * *

- method_notes: Half life in C57BL/6J mouse plasma at 10 mg/kg, po by UHPLC-MS analysis
- Format: ADME, organism-based
reported_endpoint: half-life
Report the figure along with its unit, number first.

Which half-life is reported for this molecule? `Nc1ncc(-c2nc(N3CCOCC3)nc(N3CCOCC3)n2)c(C(F)F)n1`
1.7 h

* * *

- method_notes: Toxicity in po dosed Wistar female rat assessed as NOAEL administered via gavage for 14 consecutive days
- Format: organism-based
- test_conditions: in vivo, time 14 day
reported_endpoint: NOAEL at 336 h (mg/kg)
API: value field is a number in mg/kg; no unit string.

Reported NOAEL at 336 h, molecule `Nc1ncc(-c2nc(N3CCOCC3)nc(N3CCOCC3)n2)c(C(F)F)n1` : ____
2.4

* * *

- experimental_system: mTORC1 (Homo sapiens, UniProt P42345)
- method_notes: Inhibition of mTORC1 in human A2058 cells assessed as reduction in ribosomal protein S6 phosphorylation at Ser235/236 residues incubated for 1 hr by Western blot analysis
reported_endpoint: IC50 (nM)
Express your answer in nM, writing the number without its unit.

Report IC50 for `Nc1ncc(-c2nc(N3CCOCC3)nc(N3C[C@H]4CC[C@@H](C3)O4)n2)c(C(F)F)n1` tested on mTORC1 (Homo sapiens, UniProt P42345).
139

Item: `Nc1ncc(-c2nc(N3CCOCC3)nc(N3CCOCC3)n2)c(C(F)F)n1` Test system: mTORC1 (Homo sapiens, UniProt P42345) Read-out: IC50 Value: ?
61

Test system mTORC1 (Homo sapiens, UniProt P42345); read-out IC50; what value for `C[C@@H]1COCCN1c1nc(-c2cnc(N)nc2C(F)F)nc(N2CCOCC2)n1` ?
116

Enter reported IC50 observed with mTORC1 (Homo sapiens, UniProt P42345) for `Nc1ncc(-c2nc(N3CCOCC3)nc(N3[C@@H]4CC[C@H]3COC4)n2)c(C(F)F)n1`
91
